Recorded values, source PubChem BioAssay AID2501.

# assayExplanation: counter assay for TAg ATPase ADP read-out – biochemical, ADP-Hunter, fluorescence, counter-screen (AID 2501);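 note: purified T antigen ATPase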
# setupConditions: series mostly up to 100 µM
Out of some 2,200 compounds screened, about 1,200 (55%) were called active. No cut-off is given here; in the data, nearly all actives have IC50 up to about 92 µM. The set was probably picked from earlier hits. Some of the results follow.
Labels: Yes = active, No = inactive

| mol | className |
| --- | --- |
| Cc1cccc(C(=O)Nc2ccc(O)cc2)c1 | Yes |
| O=C(Nc1ccc2c(c1)C(=O)OC2)c1ccc(C(F)(F)F)cc1 | No |
| CCOC(=O)c1c(C)c(C(=O)Nc2ccc(N(C)C)cc2)c(C)n1CC | Yes |

* * *

# assayExplanation: counter assay for TAg ATPase ADP read-out – biochemical, ADP-Hunter, fluorescence, counter-screen (AID 2501);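 note: purified T antigen ATPase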
# setupConditions: series mostly up to 100 µM
About 1,200 (55%) of roughly 2,200 compounds were called active. No cut-off is given here; in the data, nearly all actives have IC50 up to about 92 µM. The set was probably picked from earlier hits. Some of the results follow.
Labels: T = active, F = inactive

| molecule | className |
| --- | --- |
| COc1cccc(NC(=O)CC2(CC(=O)O)CCCC2)c1 | F |
| Nc1nc(-c2ccco2)cs1 | T |
| O=C(N/N=C/c1ccc(O)c(O)c1)c1cc(-c2ccccc2)nc2ccccc12 | T |
| CCOC(=O)c1cnc(Nc2nc3ccccc3o2)nc1CSC(=S)N1CCCCC1 | F |
| Cc1cc(=O)[nH]c2ccc(S(=O)(=O)Nc3ccc(O)cc3)cc12 | T |
| Cc1nn(C(C)C(=O)O)c2ccccc12 (configuration not stated) | F |
| CNC(=S)Nc1ccc(Nc2ccccc2)cc1 | T |
| CC(C)CC(NC(=O)CC12CC3CC(CC(C3)C1)C2)C(=O)NC1=NCCS1 (configuration not stated) | F |
| Cc1ccc2c(c1)NC(=O)c1cccnc1N2 | T |
| CSS(=O)(=O)c1cccc2cccnc12 | F |
| CCc1cc(C(=O)N/N=C/c2ccc(O)cc2)c2ccccc2n1 | T |
| N#CC1=C(N)n2c(s/c(=C\c3ccco3)c2=O)=C(C#N)C1c1ccco1 (configuration not stated) | F |
| Nc1ncnc2oc(-c3ccco3)c(-c3ccco3)c12 | F |
| CCSS(=O)(=O)c1cccc2cccnc12 | F |
| COC(=O)NNC(=O)c1ccccc1C | F |
| CC(C)CC(NC(=O)C1CCC(=O)N1C(=O)OCc1ccccc1)C(=O)NC(Cc1ccccc1)C(N)=O (configuration not stated) | F |
| NC(=S)N=Nc1ccc(NN=C(N)N)cc1 | T |
| C=CCn1c(CNc2ccccc2)nnc1SCC(=O)N/N=C/c1ccc(O)cc1O | T |
| COc1ccccc1NC(=O)c1c(NC(=O)CCC(=O)O)sc2c1CCCCC2 | F |
| COC/C=C/C1=CC2=CC(=O)C(C)(OC(=O)c3ccco3)C(=O)C2=CO1 (configuration not stated) | T |
| Cc1nnc(NC(=O)c2cc(-c3ccco3)nc3ccccc23)s1 | F |
| Cc1ccccc1NS(=O)(=O)c1cc(C(=O)NCCC2=CCCCC2)ccc1C | F |

* * *

# assayExplanation: counter assay for TAg ATPase ADP read-out – biochemical, ADP-Hunter, fluorescence, counter-screen (AID 2501);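 note: purified T antigen ATPase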
# setupConditions: series mostly up to 100 µM
The whole screen tested about 2,200 compounds, of which about 1,200 (55%) were called active. Cut-off not given; nearly all actives show IC50 up to about 92 µM. The set was probably picked from earlier hits. The list shows a part of the results.
Labels: active, inactive

| compound | className |
| --- | --- |
| C/C(=N/NC(=O)Cc1c(C)[nH][nH]c1=O)c1ccc(O)cc1 | active |
| COc1cc(C=O)c(Cl)cc1OCC(N)=O | inactive |
| O=C(/C=C/c1ccc(O)c(O)c1)c1ccccc1O | active |
| OC(COc1ccc2cc(Br)ccc2c1)CN1CCCC1 (configuration not stated) | inactive |
| CNC(=O)COc1ccc(C=O)cc1OC | inactive |
| O=c1[nH]sc2ccccc12 | inactive |
| CCc1c(C)nc2ncnn2c1N1CCCC(C(=O)Nc2cc(F)ccc2C)C1 (configuration not stated) | inactive |
| CC(=O)N1CCN(c2ccc(NCc3ccc(C)s3)cc2)CC1 | active |
| Oc1cc(O)cc(/C=C/c2ccc(O)c(O)c2)c1 | inactive |
| CCOC(=O)C1(C)C=C(Nc2ccc(O)cc2)C(=O)N1c1ccc(O)cc1 (configuration not stated) | active |
| Cc1nc(Cl)cc(N/N=C/c2ccc(O)cc2)n1 | active |
| COc1ccc(CCNC(=O)c2cc(-c3ccc4c(c3)OCO4)on2)cc1OC | inactive |

* * *

# assayExplanation: counter assay for TAg ATPase ADP read-out – biochemical, ADP-Hunter, fluorescence, counter-screen (AID 2501);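 note: purified T antigen ATPase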
# setupConditions: series mostly up to 100 µM
Hit rate of the full screen: of about 2,200 compounds, about 1,200 (55%) were called active. Cut-off not given; nearly all actives show IC50 up to about 92 µM. The set was probably picked from earlier hits. Some of the results follow.
Labels: active, inactive

| compound | className |
| --- | --- |
| Cc1cc(S(=O)(=O)Nc2c(C)nc3nc[nH]n3c2=O)ccc1F | inactive |
| CC(C(=O)Nc1ccc(C(=O)O)c(O)c1)N1C(=O)/C(=C\c2ccco2)SC1=S (configuration not stated) | inactive |
| COc1cc(/C=N\NC(=O)CNC(=O)c2cccc([N+](=O)[O-])c2)ccc1O | active |
| CCC(=O)NC(C)C(c1cccs1)N1CCN(c2ccccc2)CC1 (configuration not stated) | inactive |
| CC(C)c1ccc(C2CC(=O)N3CN(C)CSC3=C2C#N)cc1 (configuration not stated) | inactive |
| COc1ccc(C2=CC3=C(Br)C(=O)C(C)(OC(=O)c4ccco4)C(=O)C3=CO2)cc1 (configuration not stated) | inactive |
| O=C(CNC(=O)c1ccccc1)OCc1ccc([N+](=O)[O-])cc1 | inactive |

* * *

# assayExplanation: counter assay for TAg ATPase ADP read-out – biochemical, ADP-Hunter, fluorescence, counter-screen (AID 2501);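 note: purified T antigen ATPase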
# setupConditions: series mostly up to 100 µM
About 1,200 (55%) of roughly 2,200 compounds were called active. The set was probably picked from earlier hits. Some of the results follow.

| mol | IC50 |
| --- | --- |
| COc1ccc(-c2cc(=O)oc3c(O)c(O)ccc23)cc1 | 8.96 µM (active) |
| CCOc1cc(/C=C2\C(=O)ON=C2c2ccccc2)cc(Br)c1O | inactive |
| O=C(Nc1cccc(N2C(=O)C=CC2=O)c1)c1cccs1 | inactive |
